Test system: HL-60
Experiment: Antiproliferative activity against human HL60 cells after 72 hrs by MTT reduction assay
Format: functional, cell-based
Conditions: HL-60, 72 h
pIC50: −log10 of the molar value.
# label = yes if pIC50 >= 5 else no

INSERT INTO measurements (compound, class_name) VALUES
  ('C/C=C1/[C@H](O[C@@H]2O[C@H](CO)[C@@H](O)[C@H](O)[C@H]2O)OC=C(C(=O)OC)[C@H]1CC(=O)OCCc1ccc(O)c(O)c1 [OLEUROPEIN]', 'no'),
  ('COc1cccc2c1C(=O)c1c(O)c3c(c(O)c1C2=O)C[C@@](O)(C(=O)CO)C[C@@H]3O[C@H]1C[C@H](N)[C@H](O)[C@H](C)O1 [DOXORUBICIN]', 'yes'),
  ('C/C=C1/[C@H](O[C@@H]2O[C@H](CO)[C@@H](O)[C@H](O)[C@H]2O)OC=C(C(=O)O)[C@H]1CC(=O)O', 'no'),
  ('C/C=C1/[C@H](O[C@@H]2O[C@H](CO)[C@@H](O)[C@H](O)[C@H]2O)OC=C(C(=O)OC)[C@H]1CC(=O)OCCC1CCCCC1 (stereo in doubt)', 'yes');

---

Tested on: HCT-116
Assay: Antiproliferative activity against human HCT116 cells after 72 hrs by MTT reduction assay
Assay type: functional, cell-based
Settings: HCT-116, 72 h
pIC50: −log10 of the molar value.
Recorded pIC50 values for a group of compounds are listed next.
readout-kind: pIC50

INSERT INTO results (compound, qualifier_sign, observed_result) VALUES
  ('C/C=C1/[C@H](O[C@@H]2O[C@H](COC(C)=O)[C@@H](OC(C)=O)[C@H](OC(C)=O)[C@H]2OC(C)=O)OC=C(C(=O)OC)[C@H]1CC(=O)OCCCCCCCCCCCCCCCC', '=', 4.68),
  ('C/C=C1/[C@H](O[C@@H]2O[C@H](CO)[C@@H](O)[C@H](O)[C@H]2O)OC=C(C(=O)OC)[C@H]1CC(=O)OCCc1ccccc1 (stereo in doubt)', '=', 4.60),
  ('C/C=C1/[C@H](O[C@@H]2O[C@H](COC(C)=O)[C@@H](OC(C)=O)[C@H](OC(C)=O)[C@H]2OC(C)=O)OC=C(C(=O)OC)[C@H]1CC(=O)OCCc1ccccc1 (stereo in doubt)', '=', 4.59),
  ('C/C=C1/[C@H](O[C@@H]2O[C@H](CO)[C@@H](O)[C@H](O)[C@H]2O)OC=C(C(=O)O)[C@H]1CC(=O)O', '<', 4.30),
  ('C/C=C1/[C@H](O[C@@H]2O[C@H](CO)[C@@H](O)[C@H](O)[C@H]2O)OC=C(C(=O)OC)[C@H]1CC(=O)OCCC(C)C (stereo in doubt)', '=', 4.57),
  ('C/C=C1/[C@H](O[C@@H]2O[C@H](COC(C)=O)[C@@H](OC(C)=O)[C@H](OC(C)=O)[C@H]2OC(C)=O)OC=C(C(=O)OC)[C@H]1CC(=O)OCCC (stereo in doubt)', '=', 4.59),
  ('C/C=C1/[C@H](O[C@@H]2O[C@H](CO)[C@@H](O)[C@H](O)[C@H]2O)OC=C(C(=O)OC)[C@H]1CC(=O)OCCC1CCCCC1 (stereo in doubt)', '=', 4.86);

---

Measured pIC50 accompanies every entry in the list below.
Test system: HL-60
Assay: Antiproliferative activity against human HL60 cells after 72 hrs by MTT reduction assay
Format: functional, cell-based
Settings: HL-60, 72 h
pIC50: −log10 of the molar value.
readout-kind: pIC50

INSERT INTO measurements (compound, assay_target, observed_result) VALUES
  ('C/C=C1/[C@H](O[C@@H]2O[C@H](CO)[C@@H](O)[C@H](O)[C@H]2O)OC=C(C(=O)OC)[C@H]1CC(=O)OCCC(C)C (stereo in doubt)', 'HL-60', 5.01),
  ('C/C=C1/[C@H](O[C@@H]2O[C@H](COC(C)=O)[C@@H](OC(C)=O)[C@H](OC(C)=O)[C@H]2OC(C)=O)OC=C(C(=O)OC)[C@H]1CC(=O)OCCC (stereo in doubt)', 'HL-60', 4.97),
  ('C/C=C1/[C@H](O[C@@H]2O[C@H](COC(C)=O)[C@@H](OC(C)=O)[C@H](OC(C)=O)[C@H]2OC(C)=O)OC=C(C(=O)OC)[C@H]1CC(=O)OCCCCCCCCCCCCCCCC', 'HL-60', 5.10),
  ('C/C=C1/[C@H](O[C@@H]2O[C@H](CO)[C@@H](O)[C@H](O)[C@H]2O)OC=C(C(=O)OC)[C@H]1CC(=O)OCCc1ccccc1 (stereo in doubt)', 'HL-60', 4.99),
  ('C/C=C1/[C@H](O[C@@H]2O[C@H](COC(C)=O)[C@@H](OC(C)=O)[C@H](OC(C)=O)[C@H]2OC(C)=O)OC=C(C(=O)OC)[C@H]1CC(=O)OCCc1ccccc1 (stereo in doubt)', 'HL-60', 5.00);
